Could you please report measured Protection for the items listed next?
# Tested on: Cavia porcellus
# measurement.notes: In vivo activity for protection against acetylcholine induced bronchoconstriction in guinea pig after 5 min of intravenous administration (2 mg/kg)
# Type: functional
Give bare numbers, in %.

# molecule, output.unit, Protection
rows = [
    ("CCCCCCCCCCCCCCCCCCOC[C@@H](COC(=O)CCCC[N+](C)(C)C)OC(C)=O.[I-]", "%", 0),
    ("CCCCCCCCCCCCCCCCCCOCC(COC(=O)CCCC[N+](C)(C)C)OCC.[I-] (centres undefined)", "%", 9),
    ("CCCCCCCCCCCCCCCCCCNC(=O)OCC(COC(=O)CCCC[N+](C)(C)C)OC(C)=O.[I-] (centres undefined)", "%", 79),
]

-- ask Recorded Protection of CCCCCCCCCCCCCCCCCCOCC(COC(=O)CCC[n+]1ccccc1)OCC.[Cl-] (centres undefined) , please.
-- reply 16

* * *

Kindly supply the reported Protection values for the records listed here.
# Tested on: Rattus norvegicus
# measurement.notes: In vivo activity for protection against acetylcholine induced hypotension in rat after 5 mins of intravenous administration (1 mg/kg)
# Type: functional
Answers are plain numbers, in %.

Examples with answers:
# compound, output.unit, recorded.measurement
data = [
    ("CCCCCCCCCCCCCCCCCCOCC(COC(=O)CCC[n+]1ccccc1)OCC.[Cl-] (centres undefined)", "%", 20),
    ("CCCCCCCCCCCCCCCCCCNC(=O)OCC(COP(=O)([O-])OCC[n+]1ccsc1)OC (centres undefined)", "%", 0),
    ("CCCCCCCCCCCCCCCCCCOC[C@@H](COC(=O)CCCC[N+](C)(C)C)OC(C)=O.[I-]", "%", 16),
]

-- ask If you can, please state the reported Protection value of CCCCCCCCCCCCCCCCCCOC[C@H](COC(=O)CCCC[N+](C)(C)C)OC(C)=O.[I-] .
-- reply 18

* * *

Provide the reported EC50 of each item.
# Test system: Oryctolagus cuniculus
# measurement.notes: In vitro antiaggregation activity against PAF-acether induced platelet aggregation when administered at dose of 1 uM/Kg after 2 minutes
# Assay type: functional
One number for each entry, in µM.

See these solved cases before continuing.
# compound, EC50 (µM)
measured = [
    ("CCCCCCCCCCCCCCCCCCOCC(COC(=O)CC[N+](C)(C)C)OC(C)=O (stereo not drawn)", 24),
    ("CCCCCCCCCCCCCCCCCCOCC(COC(=O)CCC[N+](C)(C)C)OC(C)=O (stereo not drawn)", 12),
]

-- ask Which EC50 is reported for this compound? CCCCCCCCCCCCCCCCCCOCC(COC(=O)CCCC[N+](C)(C)C)OC(C)=O (stereo not drawn)
-- reply 18

* * *

Answer each item with its documented Protection.
# System: Cavia porcellus
# measurement.notes: In vivo activity for protection against PAF acether induced thrombocytopenia in guinea pig after 5 min of intravenous administration (2 mg/kg)
# Assay type: functional
One number for each entry, in %.

# molecule, Protection / %
measured = [
    ("CCCCCCCCCCCCCCCCCCOCC(COC(=O)CCCC[N+](C)(C)C)OCC.[I-] (stereo unspecified)", 55),
    ("CCCCCCCCCCCCCCCCCCOC[C@@H](COC(=O)CCCC[N+](C)(C)C)OC(C)=O.[I-]", 49),
    ("CCCCCCCCCCCCCCCCCCNC(=O)OCC(COP(=O)([O-])OCC[n+]1ccsc1)OC (stereo unspecified)", 69),
]

Value sought for every listed molecule: Protection.
1. CCCCCCCCCCCCCCCCCCOC[C@H](COC(=O)CCCC[N+](C)(C)C)OC(C)=O.[I-]
2. CCCCCCCCCCCCCCCCCCNC(=O)OCC(COC(=O)CCCC[N+](C)(C)C)OC(C)=O.[I-] (stereo unspecified)
3. CCCCCCCCCCCCCCCCCCOCC(COC(=O)CCC[n+]1ccccc1)OCC.[Cl-] (stereo unspecified)

-- reply
1: 57; 2: 38; 3: 60

Hello, the source for this data is ChEMBL document CHEMBL1124037, in case you need it.
